Cited source for all entries: ChEMBL document CHEMBL4354809

Target Under Test: Transitional endoplasmic reticulum ATPase (Homo sapiens, UniProt P55072)
Sequence (P55072 whole entry): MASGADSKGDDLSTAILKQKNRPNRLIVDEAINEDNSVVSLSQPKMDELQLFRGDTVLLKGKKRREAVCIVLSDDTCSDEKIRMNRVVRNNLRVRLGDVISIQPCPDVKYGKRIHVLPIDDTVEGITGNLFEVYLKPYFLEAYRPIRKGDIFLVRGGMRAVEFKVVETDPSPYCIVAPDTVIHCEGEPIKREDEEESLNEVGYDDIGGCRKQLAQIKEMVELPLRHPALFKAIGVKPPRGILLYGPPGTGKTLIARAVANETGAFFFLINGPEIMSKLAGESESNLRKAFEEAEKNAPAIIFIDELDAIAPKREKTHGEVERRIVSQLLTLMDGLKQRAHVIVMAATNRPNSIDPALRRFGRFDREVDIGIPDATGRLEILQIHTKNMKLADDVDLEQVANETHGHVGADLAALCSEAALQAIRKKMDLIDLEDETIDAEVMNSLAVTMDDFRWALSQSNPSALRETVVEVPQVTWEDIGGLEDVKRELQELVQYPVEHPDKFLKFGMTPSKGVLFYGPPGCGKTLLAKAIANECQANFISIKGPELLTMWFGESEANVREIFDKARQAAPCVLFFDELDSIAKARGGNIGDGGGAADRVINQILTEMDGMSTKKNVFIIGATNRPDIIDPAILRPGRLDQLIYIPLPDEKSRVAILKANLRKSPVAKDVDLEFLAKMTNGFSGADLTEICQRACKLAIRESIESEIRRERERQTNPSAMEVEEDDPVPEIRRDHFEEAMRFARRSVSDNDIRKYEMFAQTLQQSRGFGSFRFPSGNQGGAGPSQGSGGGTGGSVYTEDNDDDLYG
Assay Explanation: Binding affinity to GST-tagged p97 (unknown origin) by CD spectroscopy
Measurement Label: Kd (µM)
Report the value in µM with no unit label.

In: Any idea what its Kd is? The compound is O=C(/C=C1\Nc2ccccc2C(=O)N2CCC[C@@H]12)/C=C/c1c[nH]c2ccc(I)cc12
Out: 7

###

Target Under Test: Vacuolar protein sorting-associated protein 4B (Homo sapiens, UniProt O75351)
Sequence (O75351 whole entry, the tested form may be a part): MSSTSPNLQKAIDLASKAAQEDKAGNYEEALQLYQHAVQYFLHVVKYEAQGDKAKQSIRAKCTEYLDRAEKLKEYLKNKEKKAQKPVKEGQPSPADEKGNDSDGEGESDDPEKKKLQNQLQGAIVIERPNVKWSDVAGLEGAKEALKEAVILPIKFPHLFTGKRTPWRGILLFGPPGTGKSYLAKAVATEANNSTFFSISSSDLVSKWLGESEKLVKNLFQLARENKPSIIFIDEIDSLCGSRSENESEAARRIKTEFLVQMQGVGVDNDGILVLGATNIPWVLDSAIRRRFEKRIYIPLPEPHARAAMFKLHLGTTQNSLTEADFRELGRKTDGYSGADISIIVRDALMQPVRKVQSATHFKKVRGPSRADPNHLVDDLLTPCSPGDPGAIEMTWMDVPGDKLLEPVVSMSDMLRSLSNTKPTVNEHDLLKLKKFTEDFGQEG
Assay Explanation: Inhibition of VPS4B (unknown origin) by malachite green assay
Measurement Label: pIC50
Please keep in mind that pIC50 is minus log10 of the molar concentration; only the number is needed.

In: Any idea what its pIC50 is? The compound is Fc1ccc(C(CCCNCC2CCc3[nH]c4ccc(F)cc4c3C2)c2ccc(F)cc2)cc1 (stereo unspecified)
Out: 6.15

###

Target Under Test: Vacuolar protein sorting-associated protein 4B (Homo sapiens, UniProt O75351)
Assay Explanation: Inhibition of VPS4B (unknown origin) assessed as reduction in ATPase activity in presence of activating fragment of substrate CHMP1B
Measurement Label: IC50 (µM)
Report the value in µM with no unit label.

In: Any idea what its IC50 is? The compound is Fc1ccc(C(CCCNCC2CCc3[nH]c4ccc(F)cc4c3C2)c2ccc(F)cc2)cc1 (stereo unspecified)
Out: 0.71

###

Target Under Test: Transitional endoplasmic reticulum ATPase (Homo sapiens)
Assay Explanation: Inhibition of p97 in HEK293 cells co-expressing GFP and hemagglutinin assessed as reduction in p97-dependent ERAD pathway by immunoblotting analysis
Format: cell-based
Measurement Label: pIC50
Please keep in mind that pIC50 is minus log10 of the molar concentration; only the number is needed.

In: Any idea what its pIC50 is? The compound is C[C@H]1CCC/C=C/C(=O)c2c(O)c(Cl)c(O)c(Cl)c2CC(=O)O1
Out: 5.10

###

Target Under Test: Transitional endoplasmic reticulum ATPase (Homo sapiens)
Assay Explanation: Binding affinity to p97 (unknown origin) by SPR assay
pKd: −log10 of the molar value.
Measurement Label: pKd

In: Any idea what its pKd is? The compound is CC1(C)C(N(O)C(=O)Nc2ccc(Cl)cc2)N(c2ccc(Cl)cc2)C(=O)N1CC(=O)N/N=C/C=C/c1ccc([N+](=O)[O-])o1 (stereo unspecified)
Out: 5.00 to 5.30

###

Target Under Test: Transitional endoplasmic reticulum ATPase (Homo sapiens)
Assay Explanation: Inhibition of p97 (unknown origin) by ADP-Glo assay
Please respond with reported IC50 for every item in the list.
Answer format: value, then unit.

In: Any idea what its IC50 is? The compound is CC(C)N1CCN(CCNC2CCN(c3cccc(-c4cc5cc(C#N)ccc5[nH]4)c3)CC2)CC1
Out: 0.044 µM

In: Any idea what its IC50 is? The compound is CC(C)N1CCN(CCNC2CCN(c3cccc(-c4cc5cc(C(=O)N(C)C)ccc5[nH]4)c3)CC2)CC1
Out: 31.4 µM

In: Any idea what its IC50 is? The compound is CC(C)N1CCN(CCNC2CCN(c3cccc(-c4cc5cc(C(F)(F)F)ccc5[nH]4)c3)CC2)CC1
Out: 4.6 µM

###

Test system: JeKo-1
Assay Explanation: Growth inhibition of human JeKo1 cells assessed as reduction in cell viability by MTT assay
Type: functional, cell-based
Measurement Label: IC50 (µM)
Report the value in µM with no unit label.

In: Any idea what its IC50 is? The compound is CC1(C)C(N(O)C(=O)Nc2ccc(Cl)cc2)N(c2ccc(Cl)cc2)C(=O)N1CC(=O)N/N=C/C=C/c1ccc([N+](=O)[O-])o1 (stereo unspecified)
Out: 4
